All values here come from ChEMBL document CHEMBL1124462.

Test system: Vero
Assay: Minimum cytotoxic concentration required to cause a microscopically detectable alteration of normal cell morphology and show antiviral activity in african green monkey (Vero B) cells
Type: functional
Settings: Chlorocebus sabaeus
Answer each item with its documented MCC.

Notebook entry, Vero assay: MCC of "Cn1cc(NC(=O)CNC(=N)N)cc1C(=O)NCCCNCCCCN" = ? > 400 µg/mL

Notebook entry, Vero assay: MCC of "C[C@H](NC(=O)c1cc(NC(=O)c2cc([N+](=O)[O-])cn2C)cn1C)C(=O)N[C@@H](C)C(=O)N[C@@H](C)C(=O)OC(C)(C)C" = ? > 400 µg/mL

Notebook entry, Vero assay: MCC of "Cn1cc(NC(=O)c2cc(NC(=O)CNC(=N)N)cn2C)cc1C(=O)NCCCNCCCCN" = ? ≥ 200 µg/mL

Notebook entry, Vero assay: MCC of CC(NC(=O)c1cc(NC(=O)c2cc(NC(=O)CNC(=N)N)cn2C)cn1C)C(=O)O (stereo unspecified) = ? > 200 µg/mL

Notebook entry, Vero assay: MCC of "Cn1cc(NC(=O)c2cc([N+](=O)[O-])cn2C)cc1C(=O)O" = ? > 400 µg/mL

Notebook entry, Vero assay: MCC of "COC(=O)c1ccc([N+](=O)[O-])n1C" = ? 400 µg/mL

----------
System: Nucleic Acid
Experiment: Association constant against polynucleotide poly (dG-dC)
Format: nucleic-acid assay
property.label: K app (M⁻¹)
Supply the numeric figure in M⁻¹, leaving out any unit text.

GET /values?readout=K app&item= CC(NC(=O)c1cc(NC(=O)c2cc([N+](=O)[O-])cn2C)cn1C)C(=O)NC(C)C(=O)OC(C)(C)C (centres undefined) 20000

GET /values?readout=K app&item= "Cn1cc([N+](=O)[O-])cc1C(=O)NCCCNCCCCN" 420000

----------
Test system: Vesicular stomatitis virus
Assay: Minimum inhibitory concentration required to reduce vesicular stomatitis virus induced cytopathogenicity by 50% in primary rabbit kidney cells (PRK)
Assay type: functional
Answer each item with its documented MIC.

GET /values?readout=MIC&item= CC(NC(=O)c1cc(NC(=O)c2cc([N+](=O)[O-])cn2C)cn1C)C(=O)NC(C)C(=O)OC(C)(C)C (stereo not drawn) > 100 µg/mL

GET /values?readout=MIC&item= "Cn1cc([N+](=O)[O-])cc1C(=O)O" > 400 µg/mL

GET /values?readout=MIC&item= "Cn1cc(NC(=O)c2cc([N+](=O)[O-])cn2C)cc1C(=O)NCCC(=N)N" > 100 µg/mL

GET /values?readout=MIC&item= "Cn1cc(NC(=O)c2cc([N+](=O)[O-])cn2C)cc1C(=O)NCCCNCCCCN" > 100 µg/mL

GET /values?readout=MIC&item= "Cn1cc(NC(=O)CNC(=N)N)cc1C(=O)NCCCNCCCCN" > 400 µg/mL

GET /values?readout=MIC&item= CC(NC(=O)C(C)NC(=O)c1cc(NC(=O)c2cc(NC(=O)CNC(=N)N)cn2C)cn1C)C(=O)O (stereo not drawn) > 400 µg/mL

GET /values?readout=MIC&item= "Cn1c(C(=O)O)ccc1[N+](=O)[O-]" > 400 µg/mL

GET /values?readout=MIC&item= "C[C@H](NC(=O)c1cc(NC(=O)c2cc([N+](=O)[O-])cn2C)cn1C)C(=O)N[C@@H](C)C(=O)N[C@@H](C)C(=O)OC(C)(C)C" > 100 µg/mL
